The reported measurements were obtained from ChEMBL document CHEMBL3758084.

# assay remarks: Permeability of compound across apical to basal compartment in PBS at pH 7.4 at 10 uM after 4 hrs by PAMPA
# Assay type: ADME
# condition parameters: pH 7.4, 4 h
Would you mind labelling by permeability? At or over 0.2% is t, under is f.

INSERT INTO results (smiles_entry, qualitative_label) VALUES
  ('Cc1c(C(=O)NC2CCN(S(=O)(=O)c3ccccc3)CC2)nn(-c2ccc(Cl)cc2Cl)c1-c1ccc(Cl)cc1', 'f'),
  ('CCCCC(=O)N1CCC(NC(=O)c2nn(-c3ccc(Cl)cc3Cl)c(-c3ccc(Cl)cc3)c2C)CC1', 't'),
  ('CCCOC(=O)N1CCC(NC(=O)c2nn(-c3ccc(Cl)cc3Cl)c(-c3ccc(Cl)cc3)c2C)CC1', 't'),
  ('Cc1c(C(=O)NC2CCN(C(=O)OC(C)C)CC2)nn(-c2ccc(Cl)cc2Cl)c1-c1ccc(Cl)cc1', 'f');

Here is the next item to consider.
Given the entry "Cc1c(C(=O)NC2CCN(C(=O)CC(C)C)CC2)nn(-c2ccc(Cl)cc2Cl)c1-c1ccc(Cl)cc1" , answer whether its permeability meets or surpasses 0.2%.
t
